test system: SNU-16 cells; test: Inhibition of FGFR2-dependent cell growth (Cell-titer Glo, 72 hrs); conditions: Homo sapiens, SNU-16, 72 h, read-out: SNU16 IC50 values
measured.quantity: IC50

# lookup: IC50 of C=CC(=O)N1CCN(CCCn2c(=O)c(-c3c(Cl)c(OC)cc(OC)c3Cl)cc3cnc(NC4COC4)nc32)CC1
> 5 µM
